# TESTED_ON: CYP3A4 (Homo sapiens)
# Sequence (P08684 whole entry): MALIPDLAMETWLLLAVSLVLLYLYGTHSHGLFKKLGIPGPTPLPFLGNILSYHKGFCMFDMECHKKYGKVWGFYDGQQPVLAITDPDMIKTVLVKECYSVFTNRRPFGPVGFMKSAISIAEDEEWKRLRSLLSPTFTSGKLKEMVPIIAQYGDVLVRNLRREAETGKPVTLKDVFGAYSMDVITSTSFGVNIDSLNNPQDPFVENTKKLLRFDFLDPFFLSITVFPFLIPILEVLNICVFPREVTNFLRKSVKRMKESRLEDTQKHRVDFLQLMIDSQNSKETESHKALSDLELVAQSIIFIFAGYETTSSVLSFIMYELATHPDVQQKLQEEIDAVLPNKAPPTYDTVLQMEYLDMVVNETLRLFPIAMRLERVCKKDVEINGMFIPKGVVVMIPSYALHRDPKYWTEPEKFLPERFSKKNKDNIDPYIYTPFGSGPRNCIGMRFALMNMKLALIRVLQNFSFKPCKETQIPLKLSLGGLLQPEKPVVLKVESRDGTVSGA
pIC50: −log10 of the molar value.

# CHEM_SMILES, pIC50
measured = [
    ("Cc1cc2c(cc1CC(=O)c1sccc1S(=O)(=O)Nc1onc(C)c1Cl)COC2", "< 5.00"),
]

----------
Here we list compounds with their recorded IC50 when tested on CYP2D6 (Homo sapiens, UniProt P10635).
Sequence (P10635 whole entry): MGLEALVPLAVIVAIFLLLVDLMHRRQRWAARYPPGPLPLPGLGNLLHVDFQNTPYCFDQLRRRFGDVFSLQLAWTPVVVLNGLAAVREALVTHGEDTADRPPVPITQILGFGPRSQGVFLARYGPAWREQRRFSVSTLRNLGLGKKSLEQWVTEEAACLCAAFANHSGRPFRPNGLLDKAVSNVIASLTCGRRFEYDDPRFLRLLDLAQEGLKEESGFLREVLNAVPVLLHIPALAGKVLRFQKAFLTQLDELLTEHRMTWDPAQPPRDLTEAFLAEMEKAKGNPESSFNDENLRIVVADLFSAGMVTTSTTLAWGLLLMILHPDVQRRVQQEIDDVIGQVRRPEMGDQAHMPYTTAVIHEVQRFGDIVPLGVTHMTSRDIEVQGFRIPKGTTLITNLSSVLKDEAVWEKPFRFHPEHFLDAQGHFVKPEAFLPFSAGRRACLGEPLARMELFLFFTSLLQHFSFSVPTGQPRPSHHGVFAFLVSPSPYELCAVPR
QUANTITY_KIND: IC50

# COMPOUND, OBSERVED_VALUE
data = [
    ("Cc1cc2c(cc1CC(=O)c1sccc1S(=O)(=O)Nc1onc(C)c1Cl)COC2 [Example 1]", "> 10 µM"),
    ("Cc1cc2c(cc1CC(=O)c1sccc1S(=O)(=O)Nc1onc(C)c1Cl)OCO2 [Sitaxentan, reference compound]", "> 10 µM"),
]

----------
Here we list molecules with their recorded IC50 when tested on CYP1A2 (Homo sapiens, UniProt P05177).
Sequence (P05177 whole entry): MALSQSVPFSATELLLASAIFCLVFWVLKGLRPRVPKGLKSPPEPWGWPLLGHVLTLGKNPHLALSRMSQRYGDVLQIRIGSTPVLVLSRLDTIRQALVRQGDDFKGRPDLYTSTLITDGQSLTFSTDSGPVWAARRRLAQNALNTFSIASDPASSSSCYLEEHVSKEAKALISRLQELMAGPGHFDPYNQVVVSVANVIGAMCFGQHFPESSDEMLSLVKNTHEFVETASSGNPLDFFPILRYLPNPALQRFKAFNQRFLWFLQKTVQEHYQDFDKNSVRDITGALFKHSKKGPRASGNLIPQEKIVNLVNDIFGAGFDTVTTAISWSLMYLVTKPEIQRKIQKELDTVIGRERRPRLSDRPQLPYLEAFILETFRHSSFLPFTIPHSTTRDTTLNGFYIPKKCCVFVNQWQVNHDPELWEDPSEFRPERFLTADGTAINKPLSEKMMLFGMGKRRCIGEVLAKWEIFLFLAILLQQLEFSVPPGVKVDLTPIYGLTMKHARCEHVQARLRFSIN

# MOLECULE, IC50
data = [
    ("Cc1cc2c(cc1CC(=O)c1sccc1S(=O)(=O)Nc1onc(C)c1Cl)OCO2 [Sitaxentan, reference compound]", "> 10 µM"),
    ("Cc1cc2c(cc1CC(=O)c1sccc1S(=O)(=O)Nc1onc(C)c1Cl)COC2 [Example 1]", "> 10 µM"),
]

# credit: patent US8592470B2
